tested on: Mo7e cells which endogenously express c-kit; assay: Mo7e assay: inhibition of SCF dependent proliferation (MTT); format: cell-based; settings: Table 1; SCF stimulated Mo7e cells, 48 hours, MTT
Hi! Just check whether IC50 is below 200 nM. Below gives class 1, equal or above gives class 0.

compound: Cc1cc2c(cn1)cc(-c1cc(Nc3noc(C4CCCCO4)n3)ccc1C)c(=O)n2C (centres unmarked) [Compound A85]
class label: class 1
//
compound: Cc1cc2c(cn1)cc(-c1cc(Nc3noc([C@H]4CCCO4)n3)ccc1C)c(=O)n2C [Compound A75]
class label: class 1
//
compound: Cc1cc2c(cn1)cc(-c1cc(Nc3noc(C4CCC(O)C4)n3)ccc1C)c(=O)n2C (centres unmarked) [Compound A73]
class label: class 1
//
compound: Cc1cc2c(cn1)cc(-c1cc(Nc3noc(-c4ccc(C)nc4Cl)n3)ccc1C)c(=O)n2C [Compound A48]
class label: class 0
//
compound: Cc1cc2c(cn1)cc(-c1cc(Nc3noc(C(O)C(C)C)n3)ccc1C)c(=O)n2C (stereo in doubt) [Compound A92]
class label: class 1
//
compound: CCc1cc2c(cn1)cc(-c1cc(Nc3noc(C(C)C)n3)ccc1C)c(=O)n2C [Compound A104]
class label: class 1
//
compound: Cc1cc2c(cn1)cc(-c1cc(Nc3noc(C4CCCOC4)n3)ccc1C)c(=O)n2C (centres unmarked) [Compound A59]
class label: class 0
//
compound: Cc1cc2c(cn1)cc(-c1cc(Nc3noc(C4CCCCC4)n3)ccc1C)c(=O)n2C [Compound A18]
class label: class 1

---

system: Mo7e cells which endogenously express c-kit; experiment: Mo7e assay: inhibition of SCF dependent proliferation (MTT); assay type: cell-based; conditions: Table 1; SCF stimulated Mo7e cells, 48 hours, MTT
pIC50: −log10 of the molar value.

compound: Cc1cc2c(cn1)cc(-c1cc(Nc3noc(-c4ccc(F)cc4F)n3)ccc1C)c(=O)n2C [Compound A61]
pIC50: 7.01
--
compound: Cc1cc2c(cn1)cc(-c1cc(Nc3cc(-c4ccccc4)on3)ccc1C)c(=O)n2C [Compound D1]
pIC50: 7.17
--
compound: CCC(CC)c1nc(Nc2ccc(C)c(-c3cc4cnc(C)cc4n(C)c3=O)c2)no1 [Compound A31]
pIC50: 6.98
